Catalogue of composite z-score values
Target: Carbonic anhydrase 2 (Homo sapiens) (UniProt P00918)
Test: CAII small-molecule binders, profiling panel, biochemical, small-molecule microarray, Alexa647-labelled CAII (AID 1122)
Settings: CAII-A647 binding fluorescence, higher = more signal
Note: the reply should be a number with no unit written.

Please review the entries below; each comes with its answer.
- molecule: "O=C(NCC(F)(F)F)[C@@H]1c2ccccc2C(=O)N(C2Cc3ccccc3C2)[C@H]1c1ccc(CO)cc1"
  target.entity: "Carbonic anhydrase 2 (Homo sapiens) (UniProt P00918)"
  composite z-score: 0.414
- molecule: "CC1CC/C=C\\[C@H]2OC34C=CCN(C(C)C)C(=O)[C@H]3N(C(CO)C(C)C)C(=O)[C@@H]4C2C(=O)O1 (some centres undefined)"
  target.entity: "Carbonic anhydrase 2 (Homo sapiens) (UniProt P00918)"
  composite z-score: 0.831
- molecule: "COc1ccc([Si](C)(C)[C@H]2[C@H](CCO)O[C@@]3(C(=O)N(Cc4ccc(N5C(=O)c6cccc7cccc5c67)cc4)c4ccccc43)[C@@H]2C)cc1"
  target.entity: "Carbonic anhydrase 2 (Homo sapiens) (UniProt P00918)"
  composite z-score: 0.346

Please examine the following record next.
Give the measured composite z-score for COc1c(C)cc(-c2cc3c(c(CCc4ccccc4)n2)[Si](C(C)C)(C(C)C)OC3)cc1C
0.2

----------
Parameter: composite z-score. Scope: all listed entries.
Test system: glycogen synthase kinase-3 (GSK3A per assay name; protocol says GSK3B)
Assay: GSK3 binders on small-molecule microarrays, primary screen, biochemical, small-molecule microarray, 635 nm fluorescence, GSK3A (AID 1103); further: the record names both GSK3A and GSK3B
Settings: small-molecule microarray binding, fluorescence 635 nm; higher = more signal
Keep the answer to the number alone.

- compound: "C=CCNC(=O)[C@H]1[C@@H]2C(=O)O[C@@H](c3ccccc3)[C@@H](c3ccccc3)N2[C@@H](c2ccccc2OCCO)[C@]12C(=O)N(C(=O)OCCOC)c1ccc(C#CCCO)cc12"
  target.entity: "glycogen synthase kinase-3 (GSK3A per assay name; protocol says GSK3B)"
  recorded.metric: "composite z-score"
  value.measured: 1.2
- compound: "C=C(C1=CCN(S(=O)(=O)c2ccc(C)cc2)C1)[C@@H](OC(C)=O)[C@@H]1CCCN1S(=O)(=O)c1ccccc1[N+](=O)[O-]"
  target.entity: "glycogen synthase kinase-3 (GSK3A per assay name; protocol says GSK3B)"
  recorded.metric: "composite z-score"
  value.measured: -0.297

Consider the compound COc1ccc(C#Cc2ccc3c(c2)[C@]2(C(=O)N3)[C@H](c3ccc(O)cc3)N3[C@H](c4ccccc4)[C@H](c4ccccc4)OC(=O)[C@H]3[C@@H]2C(N)=O)cc1 and give its recorded composite z-score.
-0.381

----------
Measured composite z-score accompanies every entry in the list below.
System: Fibrinogen (Alexa647-labelled)
Assay: fibrinogen binders on compound microarrays, profiling panel, artefact control for SMM control-protein annotation, biochemical, small-molecule microarray, 635/667 nm fluorescence (AID 1131);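 further: z-score merges 667 nm fluorescence with per-spot signal-to-noise over triplicate slides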
Details: fibrinogen-A647 binding fluorescence, higher = more signal

Some compounds with recorded composite z-score:
- compound: "CCCCCN1CC=CC23O[C@@H]4/C=C\\CCC(C)OC(=O)C4[C@H]2C(=O)N(CCO)[C@@H]3C1=O (some centres undefined)"
  composite z-score: -2.44
- compound: "C/C=C/[C@@H](CCn1cc(CCO[Si](C(C)C)(C(C)C)C(C)C)nn1)[Si](C)(C)c1ccc(OC)cc1"
  composite z-score: -1.56
- compound: "CC(C)(C)OC(=O)CC[C@]1(C(=O)NCc2ccccc2)COC(c2ccc(OCCCO)cc2)=N1"
  composite z-score: 0.694
- compound: "CCN(CC)c1ccc(N2CC=CC34O[C@@H]5C=CCOC(=O)[C@@H]5[C@H]3C(=O)N(C(CO)C(C)C)[C@@H]4C2=O)cc1 (some centres undefined)"
  composite z-score: -0.236
- compound: "C=C(CCCC)/C(=C/C[C@H](OC(=O)c1ccncc1)c1ccc(CO)o1)c1cnc2ccccc2c1"
  composite z-score: 0.0311
- compound: "Cc1ccc(S[C@]2(C(=O)NCC(C)C)CC(=O)N(C(C)C)[C@@H]2c2ccc(CO)cc2)cc1"
  composite z-score: -1.48

Look up and report measured composite z-score (Fibrinogen (Alexa647-labelled)) for the following compound: CC(C)C(CO)N1C(=O)[C@@H]2[C@H]3C(=O)OCC=C[C@H]3OC23C=CCN(Cc2ccccc2)C(=O)[C@@H]13 (some centres undefined)
-1.48

Please report composite z-score with Fibrinogen (Alexa647-labelled) for item C=CCNC(=O)[C@H]1[C@@H]2C(=O)O[C@@H](c3ccccc3)[C@@H](c3ccccc3)N2[C@@H](c2ccc(OCCO)cc2)[C@]12C(=O)Nc1ccc(C#CCCO)cc12 .
0.61

Fetch value of composite z-score on Fibrinogen (Alexa647-labelled) for CC(C)C(=C=CC[C@@H](O)c1ccc(CO)o1)CCO .
0.401

Recall the reported composite z-score of COCCOC(=O)N1C(=O)[C@@]2(c3cc(C#CC4(O)CCCCCC4)ccc31)[C@H](c1ccc(O)cc1)N1[C@H](c3ccccc3)[C@H](c3ccccc3)OC(=O)[C@H]1[C@@H]2C(N)=O on Fibrinogen (Alexa647-labelled) and write it down.
-0.173

GET composite z-score | system: Fibrinogen (Alexa647-labelled) | item: C=C(COC)C(=O)CC[C@H](OC(=O)c1ccccc1-c1ccccc1C(=O)O)c1ccccc1OCCO
-0.591

State, for Fibrinogen (Alexa647-labelled), measured composite z-score of the compound listed here: COC(=O)C(CC#Cc1ccc2c(c1)[C@]1(C(=O)N2)[C@H](C(N)=O)[C@H]2C(=O)O[C@H](c3ccccc3)[C@H](c3ccccc3)N2[C@@H]1c1ccc(O)cc1)C(=O)OC
-1.59

Provide composite z-score, system Fibrinogen (Alexa647-labelled), entry CO[C@H]1O[C@H](CO)[C@@H](OC(=O)Nc2ccccc2)[C@H](OC(=O)Nc2ccc3c(c2)OCO3)[C@H]1OC(=O)Nc1ccc2c(c1)OCO2
0.172

Please report the measured composite z-score for CCOC(=O)C[C@H]1[C@H](OC(=O)c2cc3ccccc3oc2=O)[C@@H](NC(=O)c2ccccc2)c2cc(OCCCO)ccc2N1C(=O)Cc1ccc(OC)cc1 tested on Fibrinogen (Alexa647-labelled).
0.465

----------
Reported max activity by item:
Assay: NIH:OVCAR-3 ovarian cancer cell cytotoxicity, dose response, PAX8 inhibitor project, plate reader, dry powder samples (AID 743044)
Settings: NIH:OVCAR-3 ovarian cancer cell viability; at 35 µM, stronger effect = lower value unless noted
Results with a measured potency or affinity are listed apart. Results filed as inconclusive are left out. Active and inactive are the calls of the source. How the calls were made is not given here.

Let me know recorded max activity for C[C@H](CO)N1C[C@H](C)[C@H](CN(C)Cc2ccc(-c3ccccc3)cc2)Oc2ccc(NS(=O)(=O)c3ccc(F)cc3)cc2CC1=O , thanks.
-42.4% (inactive)

Provide max activity value for the following compound: C[C@H](CO)N1C[C@H](C)[C@@H](CN(C)Cc2ccc(Oc3ccccc3)cc2)OCc2ccccc2-c2c(n(C)c3ccccc23)C1=O
1.33% (inactive)

----------
Target: Left-right determination factor 2 (Homo sapiens)
Assay: LEFTY2 binders on small-molecule microarrays, primary screen, biochemical, small-molecule microarray, 635 nm fluorescence scan (AID 1110)
Settings: LEFTY2 binding, higher = more signal
Respond with satisfied for composite z-score values of 0.3 and above, not satisfied for values below.

- compound: "CC(C)C(CO)N1C(=O)[C@@H]2C3C(=O)OCCC/C=C\\[C@H]3OC23C=CCN(C(C)C)C(=O)[C@@H]13 (some centres not stated)"
  discrete.label: "not satisfied"
- compound: "COc1ccc([Si](C)(C)[C@@H]2[C@@H](CCn3cc([C@H](O)c4ccccc4)nn3)O[C@]3(C(=O)N(C)c4c(Br)cc(C)cc43)[C@H]2C)cc1"
  discrete.label: "not satisfied"
- compound: "C=CC[C@]1(C(=O)N(C)C)N=C(c2ccc(OCCCO)cc2)O[C@H]1c1ccccc1CN=[N+]=[N-]"
  discrete.label: "satisfied"
- compound: "CCCNC(=O)[C@@]1(Sc2ccc(C)cc2)CC(=O)N(Cc2cc(C(F)(F)F)cc(C(F)(F)F)c2)[C@@H]1c1ccc(CO)cc1I"
  discrete.label: "not satisfied"
- compound: "COc1ccc([Si](C)(C)[C@H]2[C@H](CC(=O)N(CCO)Cc3ccccc3)O[C@@]3(C(=O)N(Cc4cccc(N5C(=O)COc6ccccc65)c4)c4ccccc43)[C@@H]2C)cc1"
  discrete.label: "satisfied"

Assess whether reported composite z-score for COc1ccc(C(=O)Nc2cccc(CN3C(=O)[C@@]4(O[C@@H](CCO)[C@H]([Si](C)(C)c5ccc(OC)cc5)[C@H]4C)c4ccccc43)c2)cc1 sits at 0.3 or higher.
not satisfied

Decide: is the reported value of composite z-score for O=C(NO)[C@]1(Cc2ccccc2)N=C(c2ccc(OCCCO)cc2)O[C@@H]1c1ccccc1 equal to or greater than 0.3?
not satisfied
